- Study target: Monoglyceride lipase (Homo sapiens) (UniProt Q99685)
- Sequence (Q99685 whole entry): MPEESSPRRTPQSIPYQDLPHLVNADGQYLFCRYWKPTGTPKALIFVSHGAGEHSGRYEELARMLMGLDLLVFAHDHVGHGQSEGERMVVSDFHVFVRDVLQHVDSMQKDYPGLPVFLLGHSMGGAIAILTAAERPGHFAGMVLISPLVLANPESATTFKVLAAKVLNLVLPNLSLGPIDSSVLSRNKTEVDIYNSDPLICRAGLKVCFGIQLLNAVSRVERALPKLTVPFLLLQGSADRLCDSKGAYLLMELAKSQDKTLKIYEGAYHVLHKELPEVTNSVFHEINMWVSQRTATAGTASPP
- Protocol notes: Ratio of Kinact to Ki for human recombinant MAGL using 7-HCA as substrate after 60 mins by fluorescence assay
Attribute measured: Ratio (M⁻¹ s⁻¹)

record_smiles=O=C(OC(C(F)(F)F)C(F)(F)F)N1CC(c2ccn(-c3ccccc3)n2)C1 attribute_measured=Ratio assay_result=1.14e+06
record_smiles=O=C(OC(C(F)(F)F)C(F)(F)F)N1CC(c2ccnc(N3CCOCC3)n2)C1 attribute_measured=Ratio assay_result=121000
record_smiles=O=C(OC(C(F)(F)F)C(F)(F)F)N1CC(c2ccn(-c3ccc(F)c(F)c3)n2)C1 attribute_measured=Ratio assay_result=978000
